Quick reference: pKd of the listed items.
system under test: GDP-bound KRAS wild-type protein (Homo sapiens, UniProt P01116)
Sequence (P01116 whole entry): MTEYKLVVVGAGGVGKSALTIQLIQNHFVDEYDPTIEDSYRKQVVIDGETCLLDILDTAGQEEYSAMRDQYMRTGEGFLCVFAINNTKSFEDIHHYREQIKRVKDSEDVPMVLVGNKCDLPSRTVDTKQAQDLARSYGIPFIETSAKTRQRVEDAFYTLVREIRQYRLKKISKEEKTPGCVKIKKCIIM
experimental protocol: Binding to KRAS by surface plasmon resonance (SPR), Single Cycle Kinetics
experimental parameters: SPR, Single Cycle Kinetics, GDP-bound KRAS wild-type protein; read-out: KRAS KD
Convention used: pKd is expressed as -log10 of the molar concentration.

- CC[C@H](C)[C@@H]1NC(=O)[C@H](CC(C)C)N(C)C(=O)C[C@@H](C(=O)N2CCOCC2)N(C)C(=O)[C@H](C2CCCC2)N(C)C(=O)C2(CCC2)NC(=O)[C@@H]2C[C@@H](OCC3CCCC3)CN2C(=O)[C@H](CCc2cc(F)c(C(F)(F)F)c(F)c2)NC(=O)CN(C)C(=O)[C@H](Cc2ccc(C(F)(F)F)cc2)N2CCCC[C@@H](C2=O)N(C)C(=O)CN(C)C1=O [PP1001]: 10.00

Kindly consider the entry below.
Quick one: give measured pKd for `CCO[C@@H]1C[C@H]2C(=O)NC3(CCCC3)C(=O)N(C)[C@@H](C3CCCC3)C(=O)N(C)[C@H](C(=O)N(C)C)CC(=O)N(C)[C@@H](C)C(=O)N[C@@H]([C@@H](C)CC)C(=O)N(C)CC(=O)N(C)[C@H]3C/C=C\CCN(C3=O)[C@@H](Cc3ccc(C(F)(F)F)cc3)C(=O)N(C)CC(=O)N[C@@H](CCc3cc(F)c(C(F)(F)F)c(F)c3)C(=O)N2C1` 10.23

These data points were gathered from patent US20240158446A1.
